Where do these numbers come from? They come from ChEMBL document CHEMBL1681705.

- ASSAY OVERVIEW: cells
- EXPERIMENTAL CONTEXT: Homo sapiens, T-cell
- Description: Antiinflammatory activity in human CD4+ T cell assessed as inhibition of anti-CD3/anti-CD28-induced IL-2 production treated 30 mins before anti-CD3/anti-CD28 challenge measured after 48 hrs by electro-chemiluminescence assay
# label = true if IC50 < 800 nM else false

The following compounds have reported results that may help.
                                   compound  class_name
0  Cc1ccc2cc(-c3n[nH]c4ccc(NC(=O)CN(C)C)cc34)[nH]c2c1        true
1  COCCN(C)C(=O)c1ccc2cc(-c3n[nH]c4ccccc34)[nH]c2c1       false
2  Cc1ccc2cc(-c3n[nH]c4ccc(NC(=O)NC5CCCCC5)cc34)[nH]c2c1       false
3  COc1ccc(S(=O)(=O)Nc2ccc3[nH]nc(-c4cc5ccc(C)cc5[nH]4)c3c2)cc1        true
4  CC(=O)Nc1ccc2[nH]nc(-c3cc4ccc(C)cc4[nH]3)c2c1       false

Lab note: IC50 threshold 800 nM. Does this compound come in strictly under it? `Cc1ccc2cc(-c3n[nH]c4ccc(NS(=O)(=O)c5ccccc5)cc34)[nH]c2c1`
true

Lab note: IC50 threshold 800 nM. Does this compound come in strictly under it? `Cc1ccc2cc(-c3n[nH]c4ccc(NS(=O)(=O)c5c(C)noc5C)cc34)[nH]c2c1`
true

----------
- TESTED SYSTEM: Tyrosine-protein kinase ITK/TSK (Homo sapiens, UniProt Q08881)
- ASSAY OVERVIEW: Inhibition of recombinant GST-tagged full-length ITK expressed in baculovirus expression system after 30 mins by scintillation proximity assay
Examples of compounds with documented pIC50 follow.
For clarity, pIC50 is expressed as the negative log10 of concentration in mol/L.

Known pIC50 results, listed for orientation:
>>> df
                                   compound  reported_endpoint  reported
0  Cc1ccc2cc(-c3n[nH]c4ccc(NC(=O)NCc5ccccc5)cc34)[nH]c2c1              pIC50      6.12
1  NC(=O)Cc1ccc2cc(-c3n[nH]c4cccnc34)[nH]c2c1              pIC50      7.00
2  CCC(=O)Cc1ccc2cc(-c3n[nH]c4cccnc34)[nH]c2c1              pIC50      7.00
3  Cc1ccc2cc(-c3n[nH]c4ccc(NC(=O)c5ccco5)cc34)[nH]c2c1              pIC50      6.28
4  Cc1ccc2cc(-c3n[nH]c4ccc(NC(=O)C5CCOCC5)cc34)[nH]c2c1              pIC50      6.59

Okay, next one:
Looking for the measured pIC50 of `Cc1ccc2cc(-c3n[nH]c4ccc(NCC5CCCCC5)cc34)[nH]c2c1` , can you help?
5.77

----------
- ASSAY OVERVIEW: cells
- EXPERIMENTAL CONTEXT: Homo sapiens, T-cell
pIC50: −log10 of the molar value.
Binary classification by pIC50, with 6 as an inclusive lower bound for Met; all other cases are Not met.

The following compounds have reported results that may help.
>>> print(df.to_string())
                                   compound  class_name
0  Cc1ccc2cc(-c3n[nH]c4ccc(NS(=O)(=O)c5sc(C)nc5C)cc34)[nH]c2c1     Not met
1  COCC(=O)Nc1ccc2[nH]nc(-c3cc4ccc(OC)cc4[nH]3)c2c1         Met
2  Cc1ccc2cc(-c3n[nH]c4ccc(NC(=O)Nc5c(C)noc5C)cc34)[nH]c2c1         Met
3  Cc1ccc2cc(-c3n[nH]c4ccc(NS(=O)(=O)c5ccc(F)cc5)cc34)[nH]c2c1     Not met

Record `Cc1ccc2cc(-c3n[nH]c4ccc(NS(C)(=O)=O)cc34)[nH]c2c1` ; criterion: pIC50 no lower than 6. Met?
Met

Record `Cc1ccc2cc(-c3n[nH]c4ccc(NC5CCN(Cc6ccccc6)CC5)cc34)[nH]c2c1` ; criterion: pIC50 no lower than 6. Met?
Met

Record `CCN(CC)C(=O)c1ccc2cc(-c3n[nH]c4ccccc34)[nH]c2c1` ; criterion: pIC50 no lower than 6. Met?
Not met

Record `CC(C)CN(C)C(=O)c1ccc2cc(-c3n[nH]c4ccccc34)[nH]c2c1` ; criterion: pIC50 no lower than 6. Met?
Not met

Record Cc1ccc2cc(-c3n[nH]c4ccc(NC5CCN(Cc6ccccc6)C5)cc34)[nH]c2c1 (stereo not drawn) ; criterion: pIC50 no lower than 6. Met?
Met

----------
- TESTED SYSTEM: Tyrosine-protein kinase ITK/TSK (Homo sapiens)
- Sequence (Q08881 whole entry): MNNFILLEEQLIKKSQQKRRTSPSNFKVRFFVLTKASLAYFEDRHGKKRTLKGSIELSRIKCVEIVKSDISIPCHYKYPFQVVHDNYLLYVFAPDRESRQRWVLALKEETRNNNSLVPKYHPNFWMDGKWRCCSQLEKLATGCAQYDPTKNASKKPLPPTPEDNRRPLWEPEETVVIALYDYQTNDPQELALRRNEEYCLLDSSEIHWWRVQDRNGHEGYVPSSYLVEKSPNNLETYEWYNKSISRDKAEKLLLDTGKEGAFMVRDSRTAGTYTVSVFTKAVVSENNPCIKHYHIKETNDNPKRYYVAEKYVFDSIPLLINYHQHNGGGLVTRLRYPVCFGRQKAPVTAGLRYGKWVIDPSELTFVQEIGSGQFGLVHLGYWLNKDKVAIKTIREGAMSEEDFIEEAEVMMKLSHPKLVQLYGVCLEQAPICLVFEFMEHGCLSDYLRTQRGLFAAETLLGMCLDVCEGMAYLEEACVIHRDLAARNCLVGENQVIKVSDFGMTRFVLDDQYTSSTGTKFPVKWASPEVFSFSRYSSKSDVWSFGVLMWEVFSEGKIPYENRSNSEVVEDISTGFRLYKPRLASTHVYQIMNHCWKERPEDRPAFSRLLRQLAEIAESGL
- ASSAY OVERVIEW: Inhibition of recombinant GST-tagged full-length ITK expressed in baculovirus expression system after 30 mins by scintillation proximity assay
pIC50: −log10 of the molar value.
Binary classification by pIC50, with 7 as an inclusive lower bound for satisfied; all other cases are not satisfied.

The following molecules have reported results that may help.
>>> df
                                   molecule     class_name
0  Cc1ccc2cc(-c3n[nH]c4cc(NC(=O)c5ccccc5)ccc34)[nH]c2c1  not satisfied
1  CN(c1ccccc1)c1ccc2cc(-c3n[nH]c4ccccc34)[nH]c2c1  not satisfied
2  Cc1ccc2cc(-c3n[nH]c4ccc(NCC(C)C)cc34)[nH]c2c1  not satisfied
3  CN(Cc1ccccc1)C(=O)c1ccc2cc(-c3n[nH]c4ccccc34)[nH]c2c1      satisfied
4  Cc1ccc2cc(-c3n[nH]c4ccc(NS(=O)(=O)c5cn(C)cn5)cc34)[nH]c2c1      satisfied
5  Cc1ccc2cc(-c3n[nH]c4ccc(NS(=O)(=O)c5sc(C)nc5C)cc34)[nH]c2c1  not satisfied
6  CN(C)CCc1ccc2cc(-c3n[nH]c4cccnc34)[nH]c2c1  not satisfied
7  CC(=O)N1CCC(Nc2ccc3[nH]nc(-c4cc5ccc(C)cc5[nH]4)c3c2)CC1  not satisfied
8  Cc1ccc2cc(-c3n[nH]c4ccc(NS(C)(=O)=O)cc34)[nH]c2c1      satisfied
9  c1cnc2c(-c3cc4ccc(CC5CCCCC5)cc4[nH]3)n[nH]c2c1  not satisfied

Consider the additional molecule presented here.
Record `C(#Cc1ccc2cc(-c3n[nH]c4cccnc34)[nH]c2c1)CCc1cccnc1` ; criterion: pIC50 no lower than 7. Met?
not satisfied

----------
Examples of molecules with documented pIC50 follow.
- ASSAY OVERVIEW: cells
- EXPERIMENTAL CONTEXT: Homo sapiens, T-cell
For clarity, pIC50 is expressed as the negative log10 of concentration in mol/L.

>>> print(df.to_string())
                               smiles_entry  reported
0  CCC(=O)Cc1ccc2cc(-c3n[nH]c4cccnc34)[nH]c2c1      5.96

Looking for the measured pIC50 of `NC(=O)Cc1ccc2cc(-c3n[nH]c4cccnc34)[nH]c2c1` , can you help?
6.00

Looking for the measured pIC50 of `Cc1ccc2cc(-c3n[nH]c4ccc(NS(=O)(=O)c5cccc(F)c5)cc34)[nH]c2c1` , can you help?
6.10

Looking for the measured pIC50 of `c1ccc2c(-c3cc4ccc(N5CCOCC5)cc4[nH]3)n[nH]c2c1` , can you help?
5.92

----------
- TESTED SYSTEM: Tyrosine-protein kinase ITK/TSK (Homo sapiens)
- ASSAY OVERVIEW: Inhibition of recombinant GST-tagged full-length ITK expressed in baculovirus expression system after 30 mins by scintillation proximity assay
Examples of molecules with documented pIC50 follow.
For clarity, pIC50 is expressed as the negative log10 of concentration in mol/L.

Known pIC50 results, listed for orientation:
>>> print(df.to_string())
                                   molecule  reported
0  Cc1ccc2cc(-c3n[nH]c4ccc(NS(=O)(=O)c5c(C)nn(C)c5C)cc34)[nH]c2c1      7.07
1  c1ccc2c(-c3cc4ccc(N5CCOCC5)cc4[nH]3)n[nH]c2c1      6.92
2  CN(Cc1ccco1)C(=O)c1ccc2cc(-c3n[nH]c4ccccc34)[nH]c2c1      6.96

Looking for the measured pIC50 of `COCCN(C)C(=O)c1ccc2cc(-c3n[nH]c4ccccc34)[nH]c2c1` , can you help?
7.15

Looking for the measured pIC50 of Cc1ccc2cc(-c3n[nH]c4ccc(NC5CCN(Cc6ccccc6)C5)cc34)[nH]c2c1 (stereo not drawn) , can you help?
7.52

Looking for the measured pIC50 of `c1cnc2c(-c3cc4ccc(CC5CCC5)cc4[nH]3)n[nH]c2c1` , can you help?
6.46
